Test system: human Factor 11 mRNA
Experiment: Antisense inhibition of human Factor 11 in HepG2 cells by microwalk gapmers, lipofectin, 75 nM (Example 3)
Type: cell-based
Settings: HepG2, lipofectin, ~24 h, gapmers targeted to nucleobases 656 to 704 of SEQ ID NO: 1
Strand notation (5' to 3'): a small letter for the sugar, then the base; units joined by * are phosphorothioate-linked, units joined directly phosphodiester-linked; [ ] holds rarer units or linkages, { } end groups; capitals alone tell only the bases. e = 2'-O-(2-methoxyethyl) (MOE); [5mC] = 5-methylcytosine; d = 2'-deoxy (DNA)
Reported % inhibition values follow for various substances
Reply numerically in %, unit not repeated.

| Substance | % inhibition, % |
| --- | --- |
| 416868 (antisense eA*eA*eT*dG*dT*d[5mC]*dT*dT*dT*dG*dT*dT*dG*d[5mC]*dA*dA*dG*e[5mC]*eG*e[5mC]) [compound 416868] | 93 |

Query: Find the measured % inhibition of 416815 (antisense eT*eA*eG*eG*eT*d[5mC]*d[5mC]*dA*d[5mC]*dA*dT*dA*dA*dA*dT*eG*eT*e[5mC]*eT*eT) [compound 416815] with human Factor 11 mRNA as test system.
Reply: 63

Query: Give % inhibition; test system human Factor 11 mRNA; substance 416947 (antisense eT*eA*dA*dA*dT*dG*dT*d[5mC]*dT*dT*dT*dG*dT*dT*dG*e[5mC]*eA*eA*eG*e[5mC]) [compound 416947]
Reply: 62

---

Assay: Hematology assays in cynomolgus monkeys (Example 46)
Assay type: in vivo
Conditions: Day-14
Strand notation (5' to 3'): a small letter for the sugar, then the base; units joined by * are phosphorothioate-linked, units joined directly phosphodiester-linked; [ ] holds rarer units or linkages, { } end groups; capitals alone tell only the bases. e = 2'-O-(2-methoxyethyl) (MOE); [5mC] = 5-methylcytosine; d = 2'-deoxy (DNA)
Quantity measured: WBC count (µL⁻¹)
Lab book: enter the figure in µL⁻¹, no units written.

Example entries and their recorded answers appear below.
| Substance | Result unit | WBC count |
| --- | --- | --- |
| ISIS 449709: 3-8-3, 4-8-4, 2-10-2, 3-10-3 or 4-10-4 MOE microwalk gapmer (Table 46) (antisense eG*e[5mC]*eA*e[5mC]*dA*dG*dT*dT*dT*d[5mC]*dT*dG*dG*d[5mC]*eA*eG*eG*e[5mC]) | µL⁻¹ | 11000 |
| ISIS 416850: MOE gapmer, nucleobases 1275 to 1318 of SEQ ID NO: 1 (Table 8) (antisense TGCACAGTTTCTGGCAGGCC; MOE gapmer, wing and gap sizes not given here) | µL⁻¹ | 12000 |
| ISIS 449707: 3-8-3, 4-8-4, 2-10-2, 3-10-3 or 4-10-4 MOE microwalk gapmer (Table 46) (antisense e[5mC]*eA*e[5mC]*eA*dG*dT*dT*dT*d[5mC]*dT*dG*dG*e[5mC]*eA*eG*eG) | µL⁻¹ | 13000 |

Now consider a different substance.
Query: Specify measured WBC count for ISIS 445531: 5-8-5 or 6-8-6 MOE microwalk gapmer (Table 44) (antisense eG*eG*e[5mC]*eA*eT*dT*dG*dG*dT*dG*d[5mC]*dA*d[5mC]*eA*eG*eT*eT*eT) .
Reply: 20000

---

System: blood coagulation
Test: PT and aPTT assay in cynomolgus monkeys (Example 45)
Format: in vivo
Conditions: day 64; escalating dose regimen; platelet poor plasma
Protocol: Groups, each consisting of two male and three female monkeys, were injected subcutaneously with ISIS 416838, ISIS 416850, ISIS 416858, ISIS 416864, or ISIS 417002 in escalating doses. […] Body weights were measured weekly. […] Blood samples were collected in tubes containing sodium citrate. PT and aPTT were determined in duplicate with an ACL 9000 coagulation instrument (Instrumentation Laboratory, Italy). […]
Collected PT ratio (INR) values appear next to each entry.
Reply with just the number.

Consider the reported PT ratio (INR) for these substances:
| Substance | Quantity measured | Numeric value |
| --- | --- | --- |
| ISIS 417002: MOE gapmer, nucleobases 1275 to 1318 of SEQ ID NO: 1 (Table 8) (antisense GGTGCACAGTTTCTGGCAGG; MOE gapmer, wing and gap sizes not given here) | PT ratio (INR) | 1.03 |
| ISIS 416850: MOE gapmer, nucleobases 1275 to 1318 of SEQ ID NO: 1 (Table 8) (antisense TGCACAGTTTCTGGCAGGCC; MOE gapmer, wing and gap sizes not given here) | PT ratio (INR) | 1.03 |

Query: Find PT ratio (INR) for ISIS 416864: MOE gapmer, nucleobases 1275 to 1318 of SEQ ID NO: 1 (Table 8) (antisense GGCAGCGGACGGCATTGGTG; MOE gapmer, wing and gap sizes not given here) on blood coagulation and write it down.
Reply: 1.10

---

Assay: Tolerability in CD1 mice: organ weight (Example 33)
Type: in vivo
Settings: 50 mg/kg s.c. twice a week, 6 weeks, vs PBS control, normalized to body weight
Quantity measured: Percent change in liver weight

Below, each entry is followed by its recorded Percent change in liver weight result.
| Substance | Percent change in liver weight |
| --- | --- |
| 416858 (antisense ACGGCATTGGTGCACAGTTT; 5-10-5 gapmer, further chemistry not given here) [compound 416858] | +10% |
| 417003 (antisense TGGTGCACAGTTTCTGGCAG; 2-13-5 gapmer chemistry, further chemistry not given here) [compound 417003] | +32% |
| 416864 (antisense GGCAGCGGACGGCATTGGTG; 5-10-5 gapmer, further chemistry not given here) [compound 416864] | −5% |
| 416838 (antisense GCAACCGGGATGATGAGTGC; 5-10-5 gapmer, further chemistry not given here) [compound 416838] | 0% |
| 417002 (antisense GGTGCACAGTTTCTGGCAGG; 2-13-5 gapmer chemistry, further chemistry not given here) [compound 417002] | +35% |
| 416925 (antisense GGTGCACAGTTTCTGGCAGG; 3-14-3 gapmer chemistry, further chemistry not given here) [compound 416925] | +33% |
| 416850 (antisense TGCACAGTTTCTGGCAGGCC; 5-10-5 gapmer, further chemistry not given here) [compound 416850] | +6% |
| 416892 (antisense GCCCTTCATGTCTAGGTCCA; 3-14-3 chimeric gapmer, further chemistry not given here) [compound 416892] | +95% |

Query: # return recorded Percent change in liver weight for entry 416825 (antisense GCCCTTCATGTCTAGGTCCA; 5-10-5 gapmer, further chemistry not given here) [compound 416825]
Reply: +13%

Query: Quick one: give measured Percent change in liver weight for 416826 (antisense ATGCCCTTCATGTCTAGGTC; 5-10-5 gapmer, further chemistry not given here) [compound 416826]
Reply: +33%

Query: Look up and report measured Percent change in liver weight for this entry: 416999 (antisense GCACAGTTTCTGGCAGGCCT; 2-13-5 gapmer chemistry, further chemistry not given here) [compound 416999]
Reply: +47%

---

Here the recorded monocytes is given for each entry.
Test: Hematology assays in cynomolgus monkeys (Example 46)
Format: in vivo
Settings: Day 55
Strand notation (5' to 3'): a small letter for the sugar, then the base; units joined by * are phosphorothioate-linked, units joined directly phosphodiester-linked; [ ] holds rarer units or linkages, { } end groups; capitals alone tell only the bases. e = 2'-O-(2-methoxyethyl) (MOE); [5mC] = 5-methylcytosine; d = 2'-deoxy (DNA)
I only need the number, in %, no unit after it.

| Substance | Quantity measured | Numeric value |
| --- | --- | --- |
| ISIS 449708: 3-8-3, 4-8-4, 2-10-2, 3-10-3 or 4-10-4 MOE microwalk gapmer (Table 46) (antisense eA*e[5mC]*eA*dG*dT*dT*dT*d[5mC]*dT*dG*dG*e[5mC]*eA*eG) | monocytes | 6.2 |

Query: Look up and report measured monocytes for this entry: ISIS 416858: MOE gapmer, nucleobases 1275 to 1318 of SEQ ID NO: 1 (Table 8) (antisense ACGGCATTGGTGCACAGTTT; MOE gapmer, wing and gap sizes not given here)
Reply: 4.6

---

Reported WBC count values for the following substances.
Assay: Hematology assays in cynomolgus monkeys (Example 45)
Assay type: in vivo
Settings: day 36; escalating dose regimen
Respond numerically; units are µL⁻¹ and should not be typed.

| Substance | Result unit | WBC count |
| --- | --- | --- |
| ISIS 416838: MOE gapmer, nucleobases 1018 to 1042 of SEQ ID NO: 1 (Table 6) (antisense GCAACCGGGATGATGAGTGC; MOE gapmer, wing and gap sizes not given here) | µL⁻¹ | 10000 |
| ISIS 416850: MOE gapmer, nucleobases 1275 to 1318 of SEQ ID NO: 1 (Table 8) (antisense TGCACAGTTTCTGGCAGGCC; MOE gapmer, wing and gap sizes not given here) | µL⁻¹ | 10000 |
| ISIS 417002: MOE gapmer, nucleobases 1275 to 1318 of SEQ ID NO: 1 (Table 8) (antisense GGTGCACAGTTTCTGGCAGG; MOE gapmer, wing and gap sizes not given here) | µL⁻¹ | 11000 |
| ISIS 416864: MOE gapmer, nucleobases 1275 to 1318 of SEQ ID NO: 1 (Table 8) (antisense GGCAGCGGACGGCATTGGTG; MOE gapmer, wing and gap sizes not given here) | µL⁻¹ | 10000 |

Attention now shifts to the item below.
Query: Answer with reported WBC count of ISIS 416858: MOE gapmer, nucleobases 1275 to 1318 of SEQ ID NO: 1 (Table 8) (antisense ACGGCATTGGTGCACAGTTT; MOE gapmer, wing and gap sizes not given here)
Reply: 12000
